Where these numbers come from: paper PMC5111108

Target: AnKir1 (Anopheles gambiae)
Sequence (A0A075M2J8 1-555): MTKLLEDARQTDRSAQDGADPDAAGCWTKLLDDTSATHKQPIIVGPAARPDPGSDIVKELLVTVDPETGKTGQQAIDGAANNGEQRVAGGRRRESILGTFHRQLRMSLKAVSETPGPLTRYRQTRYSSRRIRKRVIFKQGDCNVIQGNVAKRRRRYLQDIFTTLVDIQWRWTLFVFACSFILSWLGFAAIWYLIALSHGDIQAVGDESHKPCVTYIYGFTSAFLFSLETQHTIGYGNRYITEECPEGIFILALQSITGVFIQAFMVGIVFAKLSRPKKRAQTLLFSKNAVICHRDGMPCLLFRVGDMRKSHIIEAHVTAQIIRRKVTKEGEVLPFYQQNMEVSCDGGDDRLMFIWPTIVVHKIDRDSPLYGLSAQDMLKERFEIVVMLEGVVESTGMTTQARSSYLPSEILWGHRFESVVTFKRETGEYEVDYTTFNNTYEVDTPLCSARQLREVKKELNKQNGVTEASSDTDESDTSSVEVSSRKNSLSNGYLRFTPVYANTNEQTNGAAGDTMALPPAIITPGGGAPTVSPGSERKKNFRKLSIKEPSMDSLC
Assay: Tl+ flux assay in T-REx-HEK293 cells expressing AnKir1
Assay type: cell-based
Settings: Tl+ flux; Tables S2/S3 and supplemental text; read-out: AnKir1 IC50
observable: IC50
Respond with the figure and its unit, in that order.

>  <compound>
O=C(CN1CCCc2ccccc21)N1CCCc2ccccc21

>  <result>
8 µM

$$$$
>  <compound>
O=C1CCCc2c1ccn2CC(=O)N1CCCc2ccccc21

>  <result>
12.1 µM

$$$$

Note to self: IC50 recorded for CC1CC(C)CN(C(=O)Cn2nc(C(F)(F)F)c3c2CCCC3)C1 (centres unmarked) was 4.5 µM

Note to self: IC50 recorded for `O=C(Cn1nc(C(F)(F)F)c2c1CCCC2)N1CCOc2ccccc21` was 4.6 µM

Note to self: IC50 recorded for O=C(Cn1nc(C(F)(F)F)c2c1CCCC2)N1CCCC2CCCCC21 (centres unmarked) was 6.7 µM

Note to self: IC50 recorded for `O=C(Cn1nc(C(F)(F)F)c2c1CCCC2)N1CCc2ccccc2C1` was 15 µM

Note to self: IC50 recorded for O=C(Cn1nc(C(F)(F)F)c2c1CCCC2)N1CCCC(c2ccccc2)C1 (centres unmarked) was 5.6 µM

Note to self: IC50 recorded for `O=C(Cn1nc(C(F)(F)F)c2c1CCCC2)N1CCCc2ccccc21` was 2.3 µM
